# Test system: HT-29
# Procedure Details: NCI tumour cell line growth inhibition, 48 h
The source made the active and inactive calls. Cut-off read from the data, not from the text of the source: active = GI50 up to about 1.1 µM and inactive = higher.
Please state which outcome applies, choosing from label 1 = active, label 0 = inactive

Query: What did the test return for CO[C@H](c1ccccc1)[C@H](C)N(C)c1ccc2ccccc2c1C1=NC(C)(C)CO1 ?
Result: label 0

Query: Another: NC(=S)N1N=C2c3ccccc3CCC[C@H]2[C@@H]1c1ccccc1
Result: label 1

Query: Then CCCCCCCCCCCCCCCCCCCCCC(=O)Nc1ccn(C2OC(CO)C(O)C2O)c(=O)n1 (configuration not stated) ?
Result: label 0

Query: Param item: COc1ccc(/C=C2/C(C)=NN(c3cccc(Cl)c3)/C2=N/c2nc3ccccc3s2)cc1
Result: label 0

Query: Now this one: O=c1c(-c2ccccc2)nnc2n(Cc3ccccc3)c3ccccc3n12
Result: label 0

Query: Also check O=C(/C=C/c1ccc(-c2ccccc2[N+](=O)[O-])o1)NCc1ccc(C(=O)NCCc2ccccc2)cc1
Result: label 0

Query: # iterate: N=c1oc2ccc(Cl)cc2cc1C(=O)Nc1ccccc1
Result: label 0

Query: Can you handle O=c1c2cc(I)ccc2nc(Sc2ccc([N+](=O)[O-])cc2[N+](=O)[O-])n1Cc1ccccc1 next?
Result: label 0

Query: Next molecule: CC[C@H]1C=CCC[C@@]2(C[C@@H]3CC[C@H]4[C@@H](C(=O)OCCCCCCCCCCCCCCCC(=O)N(CCCNC(C)=O)C[C@H](CCNC(C)=O)OC(C)=O)[C@@]5(CCC[C@@H](C)O5)NC(=[N+]34)N2)O1
Result: label 0

Query: Please answer likewise for CCC(C)(C)c1ccc(Oc2cccc(C(=O)O)c2)cc1
Result: label 0

Query: // same read-out, input: CC(C)(C)NNc1c([N+](=O)[O-])cnn(-c2ccccc2)c1=O
Result: label 0

Query: Likewise for Cc1ccc(C(=O)N/N=C(\N=N\c2ccccc2[N+](=O)[O-])c2ccc(N(C)C)cc2)cc1 ?
Result: label 0

---

# Tested on: UACC-62
# Procedure Details: NCI tumour cell line growth inhibition, 48 h
The source made the active and inactive calls. Cut-off read from the data, not from the text of the source: active = GI50 up to about 1.1 µM and inactive = higher.
Provide the recorded GI50 for the entries that follow.

Query: Consider the compound shown here: c1ccc2c(c1)nc1n2CNC1 What is its recorded GI50?
Result: > 100 µM (inactive)

Query: What about this compound? O=C(NC(=S)Nc1ccc(Br)cc1)c1ccc2c(c1)Sc1ccccc1S2
Result: 27.5 µM (inactive)

Query: Same question, COc1cc(C2S/C(=C/c3ccccc3)C(=O)N2c2ccc(NC(C)=O)cc2)cc(OC)c1OC (stereo not drawn) this time
Result: 20 µM (inactive)

---

# System: UACC-62
# Procedure Details: NCI tumour cell line growth inhibition, 48 h
The source made the active and inactive calls. Cut-off read from the data, not from the text of the source: active = GI50 up to about 1.1 µM and inactive = higher.
Assign GI50 to each entry below.

Query: For UACC-62, provide GI50 of CCc1ccc(CCN2CCCCC2)nc1 please.
Result: > 100 µM (inactive)

Query: # iterate: N#CCCC1(CCC#N)S(=O)(=O)OCCOS1(=O)=O
Result: 9.4 µM (inactive)

Query: What do we get for CCN(CCO)CC1CCCC2CCCCC21 (configuration not stated) ?
Result: > 100 µM (inactive)

Query: Field entry: O=c1[nH]c2ccc([N+](=O)[O-])c(Cl)c2c2ccccc12
Result: 3.79 µM (inactive)

Query: Quick one: Cc1ccc(NC(=O)C(=O)CC(=O)C2CCOC2=O)c(C)c1 (configuration not stated)
Result: > 100 µM (inactive)

Query: Next compound up: C[N+](C)(C)CC(=O)N/N=C(/Cc1nc2ccc([N+](=O)[O-])cc2nc1O)C(=O)Nc1cc(C(F)(F)F)ccc1Cl
Result: 94.2 µM (inactive)

Query: Check C[C@H]1CC(=O)[C@@]2(O)C#C/C=C\C#C[C@@H]3Nc4c(cc(O)c5c4C(=O)c4ccccc4C5=O)[C@]24O[C@]314 too.
Result: 0.00764 µM (active)

---

Provide the recorded GI50 for the entries that follow.
# Test system: TK-10
# Procedure Details: NCI tumour cell line growth inhibition, 48 h
Active and inactive are the calls of the source. No stated cut-off is given here; in the data, active = GI50 up to about 1.1 µM and inactive = higher.

Query: Sample Cc1ccc(NC(=O)C(=O)CC(=O)C2CCOC2=O)c(C)c1 (stereo not drawn) — what was its GI50?
Result: > 100 µM (inactive)

Query: Now consider O=[N+]([O-])c1ccc(CSc2nncc3[nH]cnc23)cc1 and answer again.
Result: > 100 µM (inactive)

Query: Please do the same for O=C(C1OC1c1ccc(Cl)cc1)C12CC3CC(CC(C3)C1)C2 (stereo not drawn) as well.
Result: 26.7 µM (inactive)

Query: Request: COc1cc2c(cc1OC(=O)CC(C)O)C1C(OC2=O)C(OC(C)=O)C=C2CCN(C)[C@H]21 (stereo partly drawn)
Result: 26.3 µM (inactive)

Query: And then O=C1CCCC2COc3ccc(O)c1c32 (stereo not drawn) , what is it?
Result: > 100 µM (inactive)

Query: Same thing, different molecule: O=C(CSCC(=O)N/N=C/c1cccc(C(F)(F)F)c1)N/N=C/c1cccc(C(F)(F)F)c1
Result: > 100 µM (inactive)

Query: # repeat for C[C@H]1CC(=O)[C@@]2(O)C#C/C=C\C#C[C@@H]3Nc4c(cc(O)c5c4C(=O)c4ccccc4C5=O)[C@]24O[C@]314
Result: 0.0574 µM (active)

Query: Another molecule: CCc1ccc(CCN2CCCCC2)nc1
Result: > 100 µM (inactive)

Query: Follow-up entry: CC1(CO)COC(C)(C)OC1
Result: > 100 µM (inactive)

Query: What would you report for COc1ccc(N2C(=O)C3c4[nH]c5cccc(C)c5c4C4CCC(C(C)(C)C)CC4C3C2=O)cc1 (stereo not drawn) ?
Result: > 10 µM (inactive)

Query: What do you have for COc1ccc([N+]2=NC(c3ccc([N+](=O)[O-])cc3)=NN(c3ccccc3)C2)cc1.[O-][Cl+3]([O-])([O-])[O-] ?
Result: > 100 µM (inactive)

Query: Thanks! And COc1cc(C2C3=C(NC(=O)C2C#N)c2ccc4ccccc4c2OCC3)cc(OC)c1OC (stereo not drawn) ?
Result: > 100 µM (inactive)

Query: Repeat with Nc1ccc(S(=O)(=O)c2ccc(/N=[N+](\[O-])c3ccc(S(=O)(=O)c4ccc(N)cc4)cc3)cc2)cc1
Result: > 44.1 µM (inactive)

Query: // repeat for CN(C)c1ccc(/C=N/Nc2nc3ccccc3c(=O)n2-c2ccccc2)cc1 and report
Result: > 100 µM (inactive)

Query: Likewise for NC(=O)C(=CNC(=S)c1ccncc1)C(N)=O ?
Result: > 100 µM (inactive)

Query: Likewise for COc1ccc(C(CC2(c3ccc(OC)cc3)SCCCS2)NC(C)=O)cc1 (stereo not drawn) ?
Result: 39.8 µM (inactive)

Query: // same read-out, input: O=CN1CCN(C(=O)c2ccc(Cl)c(Cl)c2)C1=S
Result: 16.5 µM (inactive)

Query: Let us now turn to COc1cccc2c1C(=O)c1c(O)c3c(c(O)c1C2=O)CC(O)(C(=O)CO)CC3OC1CC(N2CCOCC2C#N)C(O)C(C)O1 (stereo not drawn)
Result: < 0.0001 µM (active)

Query: What do we get for O=C(CC(=O)c1cccc([N+](=O)[O-])c1)C(=O)Nc1nc([N+](=O)[O-])cs1 ?
Result: > 100 µM (inactive)

Query: Next up: COc1cc2c(cc1OCCCCOc1cc3nc(C)nc(Cl)c3cc1OC)N=C[C@@H]1CCCN1C2=O
Result: 2.34 µM (inactive)

Query: Try COc1ccc(-c2cc(O)c3ccc(F)cc3n2)cc1 next.
Result: > 100 µM (inactive)

Query: Please give the result for Cc1c(C(=O)CC(=O)C(=O)Nc2c(C(C)C)cccc2C(C)C)[n+]([O-])c2ccccc2[n+]1[O-] too.
Result: 26.1 µM (inactive)

Query: Ok, now O=C1OC[C@@H]2Cc3cc4c(cc3[C@H](c3ccc5c(c3)OCO5)[C@@H]12)OCO4
Result: > 25 µM (inactive)

---

# Test system: CAKI-1
# Procedure Details: NCI tumour cell line growth inhibition, 48 h
Active and inactive are the calls of the source. Cut-off read from the data, not from the text of the source: active = GI50 up to about 1.1 µM and inactive = higher.
Give your call using only these classes: active, inactive

Query: Just curious, what result did CC(Nc1ccc(S(=O)(=O)NC(=N)N)cc1)c1c2ccccc2nc2ccccc12 (centres undefined) get here?
Result: inactive

Query: # iterate: C=C(C)C12OC1[C@@]1(C)C(=CC2=O)CCC(O)[C@@H]1C (some centres undefined)
Result: active

Query: What would you report for CC(=NNC(=S)Nc1ccc(C)cc1)c1cccc(C(C)=NNC(=S)Nc2ccc(C)cc2)n1 ?
Result: inactive

Query: Repeat for the following molecule: CCCCc1c(OC)cc(O)c2c1C(=O)c1[nH]c(C(=O)O)c(O)c(=O)c1C2=O
Result: inactive

Query: Would you mind doing Cc1no[n+]([O-])c1/C=N/NS(=O)(=O)c1ccccc1 as well?
Result: inactive

Query: Also O=C1CC(NCCCNC2CC(=O)c3c(Br)sc(Br)c32)c2c(Br)sc(Br)c21 (centres undefined) , if possible.
Result: inactive

Query: What do you get for N=C(N)SCc1ccc(Cl)c2ccccc12.O=[N+]([O-])c1ccc(O)c([N+](=O)[O-])c1 ?
Result: inactive

Query: Continue with CC(=O)N1C(C(=O)NC2CCCCC2)CSC1c1ccccc1 (centres undefined)
Result: inactive

Query: Next up: CCOP(=O)(OCC)C(F)(F)Cc1cnc(C)c2c1COC(C)(C)O2
Result: inactive

Query: Consider next the molecule CCCCCC(O)(CCCCC)CCCCCCCCC1=C(O)C(=O)c2ccc(=O)[nH]c2C1=O in the same way.
Result: inactive

Query: // next record Cc1cc(O)c2c3c1C(=O)Oc1c(CO)c(O)c(C(=O)O)c(c1O3)C=NN=Cc1c3c(c(CO)c(O)c1C(=O)O)OC(=O)c1c(C)cc(O)c(c1O3)C=NN=C2
Result: inactive

Query: Please answer likewise for O=C1c2ccccc2CC1C1(O)C(=O)Nc2ccccc21 (centres undefined)
Result: inactive

Query: Also O=[N+]([O-])C1=Cc2cc(Cl)ccc2OC1c1cccc2ccccc12 (centres undefined) ?
Result: active

Query: Field entry: CC1=C(C(=O)NNC(=O)CC#N)CC(C(=O)NNC(=O)CC#N)=C(C)N1
Result: inactive

Query: Ok, now Cc1c(Cl)c2ccccc2n1S(=O)(=O)c1ccccc1
Result: inactive

Query: Field entry: COc1cc(/C=C2/SC(c3ccccc3)N(c3cccc(NC(C)=O)c3)C2=O)cc(OC)c1OC (centres undefined)
Result: inactive

Query: For C=C(C)[C@@H]1CCC2=C(CC[C@]3(C)[C@@H]([C@@H](CCC=C(C)C)C(=O)O)[C@H](O)C[C@@]23C)[C@@]1(C)CCC(=O)O then?
Result: inactive

Query: // repeat for O=C1CSC(c2ccccc2O)N1c1ccc(-c2ccc(-n3c(-c4ccccc4)nc4ccccc4c3=O)cc2)cc1 (centres undefined) and report
Result: inactive

Query: Follow-up item: O=[N+]([O-])c1cc2ccc1OCc1cccc(n1)COc1ccc(cc1[N+](=O)[O-])/C=N\CCCCCCCC/N=C\2
Result: inactive

Query: Same question for CCOP(=O)(OCC)/C(C#N)=C/c1cn(C)cn1 please.
Result: inactive

Query: # repeat for Cc1cc(Cl)cc2c1NC(=O)C2(O)CC(=O)c1ccc(Br)cc1 (centres undefined)
Result: inactive

Query: // next record O=C(/C=C/c1ccc(-c2ccccc2[N+](=O)[O-])o1)NCc1ccc(C(=O)NCCc2ccccc2)cc1
Result: inactive

Query: Similarly, C=C(C)C1Cc2c(cc(O)c3c(=O)c4c(oc23)C(O)Oc2cc(OC)c(OC)cc2-4)O1 (centres undefined) ?
Result: inactive

Query: Record: O=P1(N(CCCl)CCCl)Oc2ccc(Cl)cc2Sc2c(ccc(Cl)c2Cl)O1 (centres undefined)
Result: inactive

Query: Also, O=C(C1OC1c1ccc(Cl)cc1)C12CC3CC(CC(C3)C1)C2 (centres undefined) please.
Result: inactive

Query: Same for Cc1cnc2c(c1)C(=O)N(c1ccc(Br)cc1)S2(=O)=O
Result: inactive

Query: # repeat for COc1ccccc1/C=C/C(=O)c1sc(-c2cccnc2)nc1C
Result: inactive

Query: And NC(=O)OCC(COc1ccc(Cl)cc1)OC(=O)c1ccccc1Cl (centres undefined) ?
Result: inactive

Query: What do we get for CC(C)(C)NNc1c([N+](=O)[O-])cnn(-c2ccccc2)c1=O ?
Result: inactive
